Entry source: the NIST ThermoML archive (doi:10.1016/j.fluid.2018.11.011)

Assay: activity coefficient (dimensionless); of the first substance listed, at infinite dilution; xn = mol fraction of the nth substance listed
Details: 353 K; 101.33 kPa; Liquid; Chromatography; x1 = 0
reported-metric: activity coefficient

Field: example entries. Status: answers known.
{"molecule": "C1CCCC1 [cyclopentane] + CCCCCCCCCC[N+](C)(C)CCCCCCCCCC.F[B-](F)(F)F", "activity coefficient": 1.28}
{"molecule": "C=CCCCCC [1-heptene] + CCCCCCCCCC[N+](C)(C)CCCCCCCCCC.[O-][Cl+3]([O-])([O-])[O-]", "activity coefficient": 2.15}
{"molecule": "CCCCCCCC [octane] + CCCCCCCCCC[N+](C)(C)CCCCCCCCCC.F[B-](F)(F)F", "activity coefficient": 2.89}

**Q:** Specify reported activity coefficient for the molecule shown: C#CCCCCC [1-heptyne] + CCCCCCCCCC[N+](C)(C)CCCCCCCCCC.F[B-](F)(F)F
**A:** 1.12

**Q:** Specify reported activity coefficient for the molecule shown: C1CCCC1 [cyclopentane] + CCCCCCCCCC[N+](C)(C)CCCCCCCCCC.[O-][Cl+3]([O-])([O-])[O-]
**A:** 1.19

**Q:** Specify reported activity coefficient for the molecule shown: ClCCCl [1,2-dichloroethane] + CCCCCCCCCC[N+](C)(C)CCCCCCCCCC.[O-][Cl+3]([O-])([O-])[O-]
**A:** 0.482

**Q:** Specify reported activity coefficient for the molecule shown: C=CCCCCCC [oct-1-ene] + CCCCCCCCCC[N+](C)(C)CCCCCCCCCC.F[B-](F)(F)F
**A:** 0.951

**Q:** Specify reported activity coefficient for the molecule shown: C1CCCCC1 [cyclohexane] + CCCCCCCCCC[N+](C)(C)CCCCCCCCCC.[O-][Cl+3]([O-])([O-])[O-]
**A:** 1.54

**Q:** Specify reported activity coefficient for the molecule shown: C=CCCCCC [1-heptene] + CCCCCCCCCC[N+](C)(C)CCCCCCCCCC.F[B-](F)(F)F
**A:** 2.23

**Q:** Specify reported activity coefficient for the molecule shown: CCC(C)=O [butanone] + CCCCCCCCCC[N+](C)(C)CCCCCCCCCC.[O-][Cl+3]([O-])([O-])[O-]
**A:** 0.585

###

Assay: activity coefficient (dimensionless); of the first substance listed, at infinite dilution; xn = mol fraction of the nth substance listed
Details: 353 K; 101.33 kPa; Liquid; Chromatography; x1 = 0
// label = T if activity coefficient is not less than 0.9, otherwise F

Completed entries (count: 2):
{"molecule": "C#CCCCC [1-hexyne] + CCCCCCCCCC[N+](C)(C)CCCCCCCCCC.[O-][Cl+3]([O-])([O-])[O-]", "label-class": "T"}
{"molecule": "C/C=C/C(C)C [(E)-4-methyl-2-pentene] + CCCCCCCCCC[N+](C)(C)CCCCCCCCCC.[O-][Cl+3]([O-])([O-])[O-]", "label-class": "T"}

**Q:** Dear colleague, could you confirm whether CC(C)=O [acetone] + CCCCCCCCCC[N+](C)(C)CCCCCCCCCC.[O-][Cl+3]([O-])([O-])[O-] has activity coefficient at or above 0.9?
**A:** F

**Q:** Dear colleague, could you confirm whether O=C1CCCCC1 [cyclohexanone] + CCCCCCCCCC[N+](C)(C)CCCCCCCCCC.[O-][Cl+3]([O-])([O-])[O-] has activity coefficient at or above 0.9?
**A:** T

**Q:** Dear colleague, could you confirm whether CCCC [butane] + CCCCCCCCCC[N+](C)(C)CCCCCCCCCC.F[B-](F)(F)F has activity coefficient at or above 0.9?
**A:** T
